Tested on: maize
Test: Crop safety test (pot culture method)
Type: in vivo
Settings: dose 150 g/ha, plants with about 4-5 leaves, investigated 15 days later
PROPERTY NAME: inhibition ratio, Maize (crop safety)
Note to self: number, then unit, no commentary.

> print(dat)
                                   molecule                          property.name  result
1  Cc1c(C(=O)C2=C(O)CC(C)(C)CC2=O)ccc2c1c(=O)n(-c1ccccc1C(F)(F)F)c(=O)n2C [Compound 91]  inhibition ratio, Maize (crop safety)     10%
2  Cc1ccccc1-n1c(=O)c2cc(C(=O)C3=C(O)CCCC3=O)ccc2n(C)c1=O [Compound 20]  inhibition ratio, Maize (crop safety)     15%
3  Cc1ccccc1-n1c(=O)c2cc(C(=O)C3=C(O)CC(C)(C)CC3=O)ccc2n(C)c1=O [Compound 21]  inhibition ratio, Maize (crop safety)     15%
4  Cc1cccc(C)c1-n1c(=O)c2cc(C(=O)C3=C(O)CCCC3=O)ccc2n(C)c1=O [Compound 34]  inhibition ratio, Maize (crop safety)      0%
5  Cn1c(=O)n(-c2ccccc2Cl)c(=O)c2cc(C(=O)C3=C(O)CC(C)(C)CC3=O)ccc21 [Compound 6]  inhibition ratio, Maize (crop safety)     15%

Request: Dear colleague, I am looking for the recorded inhibition ratio, Maize (crop safety) of the following molecule: CS(=O)(=O)c1ccc(C(=O)C2C(=O)CCCC2=O)c([N+](=O)[O-])c1 [Mesotrione, mesotrione, reference compound]
Result: 15%

Request: Further, for CCc1ccccc1-n1c(=O)c2cc(C(=O)C3=C(O)CCCC3=O)ccc2n(C)c1=O [Compound 47] ?
Result: 0%

###

Recorded measurements of herbicidal activity inhibition ratio (%), Eclipta prostrata, one per entry
Tested on: eclipta prostrata
Experiment: Herbicidal activity, pot culture method (primary and secondary screening test)
Type: in vivo
Settings: primary screening, pot culture, 150 g/ha, sprayed at 3-leaf stage, result 15 days later
Give the value; after it, write the unit.

> print(dat)
                                   compound             target  result
1  CCn1c(=O)n(-c2ccccc2C)c(=O)c2cc(C(=O)C3=C(O)CC(C)(C)CC3=O)ccc21 [Compound 69]  eclipta prostrata     88%
2  Cn1c(=O)n(-c2c(Cl)cccc2Cl)c(=O)c2cc(C(=O)C3=C(O)CCCC3=O)ccc21 [Compound 32]  eclipta prostrata     50%
3  Cc1ccccc1-n1c(=O)c2cc(C(=O)C3=C(O)CC(C)(C)CC3=O)ccc2n(C)c1=S [Compound 87]  eclipta prostrata      0%
4  Cn1c(=O)n(-c2ccccc2C(F)(F)F)c(=O)c2cc(C(=O)C3=C(O)CC(C)(C)CC3=O)ccc21 [Compound 41]  eclipta prostrata     80%
5  Cc1ccc(Cl)cc1-n1c(=O)c2cc(C(=O)C3=C(O)CC(C)(C)CC3=O)ccc2n(C)c1=O [Compound 37]  eclipta prostrata     80%
6  Cc1cccc(-n2c(=O)c3cc(C(=O)C4=C(O)CC(C)(C)CC4=O)ccc3n(C)c2=O)c1 [Compound 18]  eclipta prostrata     75%

Consider the additional compound presented here.
Request: Give its herbicidal activity inhibition ratio (%), Eclipta prostrata value. Item: Cc1ccc(-n2c(=O)c3cc(C(=O)C4=C(O)CCCC4=O)ccc3n(C)c2=O)cc1 [Compound 14]
Result: 75%
